Tested on: murine neural precursor cells (neurosphere cultures)
Experiment: HTS of LOPAC library against secondary neurosphere cultures, MTT proliferation assay at 3 μM, day 7 (z score, P value)
Assay type: cell-based, mouse
Settings: LOPAC primary screen, neurosphere MTT proliferation, 3 μM, day 7
Structures can show the parent of a compound that is named as a salt.
Consider the following compounds and their measured Z score readings.
// print number alone

Example compounds with recorded Z score:
Br.CCCN(CCC)[C@@H]1CCc2cccc(O)c2C1 [R-(+)-8-Hydroxy-DPAT hydrobromide]	−0.692
N#CC(C#N)=Cc1cc(O)c(O)c(O)c1	−0.259
CC(=O)[C@H]1CC[C@H]2[C@@H]3CC[C@H]4C[C@H](O)CC[C@]4(C)[C@H]3CC[C@]12C	0.934
NNC(N)=O [Semicarbazide hydrochloride]	−1.405
CC(C)NC[C@@H](O)c1ccc(O)c(O)c1.O=C(O)C(O)C(O)C(=O)O [S(+)-Isoproterenol(+)-bitartrate]	−0.296
N[C@@H](C(=O)N[C@@H]1C(=O)N2C(C(=O)O)=C(Cl)CS[C@H]12)c1ccccc1	−3.009
O=C[C@H](Cl)[C@@H](O)[C@H](O)[C@H](O)CO	−2.364

Could you now consider this next compound?
Entry NC(=O)CN1CCCC1=O has what Z score?
−0.376
